experiment: protease stability score; higher = more stable; yeast display proteolysis, trypsin and chymotrypsin;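 further: relative to predicted unfolded state with 0 unfolded-like and 1 meaning tenfold more protease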
measured.attribute: protease stability score
Answer as a number with no unit attached.

Note down protease stability score recorded for SETHMESKIASEIFSDIMHTGDFRTLLRYADPHVRYIVGDKTMHGREIMVEEFKELWKTWGVDRVEVRIEDIKVIGEKVEIHGTLIIGEKTLRVVVISTKVNGQWIQDTFNVDEK
0.838

Given DEEKELSKKLLEVFIKVMRTGDWRAFSERLDPHTRTDVNGVDIHGRENTLELLRRLEEEWGVSRVDVRIHDADHQGDYIKFDGIEIYNGVERRTRMVSEKFNGRWRNKIFILD , respond with its protease stability score.
0.238

Please list protease stability score recorded for the sequence TEDHEIVEDALRLWWTSVHTGDETLMSRLADPDVRLIVGDKHFHGREKFTRTMKELDDEMRFHHLEIKEFELFDGRIKINVRLRGTIGDKHTIFEVNVINLKVNGKWLLKSLEVR
1.1
